Each recorded value in this set is attributed to patent US20140107051A1.

system: MPS IIIB fibroblasts; assay: Number of lysosomal structures by electron microscopy, MPS IIIB; type: cell-based, human; conditions: 30 μM
Some molecules, each annotated with its measured Number of structures per 100 μm^2 of cellular cross section ± SD, complexed.
measured parameter: Number of structures per 100 μm^2 of cellular cross section ± SD, complexed

> print(dat)
                            compound.string                    result
1  O=c1c(-c2ccc(O)cc2)coc2cc(OCCCO)cc(O)c12  0.16 ± 0.08 per 100 μm^2
2  CC(=O)OCCCCCOc1cc(O)c2c(=O)c(-c3ccc(O)cc3)coc2c1  0.07 ± 0.06 per 100 μm^2
3   CC(C)Oc1ccc(-c2coc3cc(O)cc(O)c3c2=O)cc1  0.11 ± 0.14 per 100 μm^2
